For each of the molecules below, state its pIC50.
# System: N87 (gastric cancer) cells
# assay.remarks: In vitro cell assay (MTS cell viability), N87
# Format: cell-based
# stated.conditions: free compounds (natural products and synthetic analogs); cell viability 96 hours after treatment
# Protocol: Target expressing (BT474 (breast cancer), N87 (gastric cancer), HCC1954 (breast cancer), MDA-MB-361-DYT2 (breast cancer)) or non-expressing (MDA-MB-468) cells were seeded in 96-well cell culture plates for 24 hours before treatment. […] Cell viability was determined by CellTiter 96® AQueous One Solution Cell Proliferation MTS Assay (Promega, Madison Wis.) 96 hours after treatment. Relative cell viability was determined as percentage of untreated control. […]
Hey, just a heads up that pIC50 is the negative log base 10 of the concentration in molar.

Lookup: Identify the reported pIC50 for the following entry. CC(=O)O[C@@H](C)/C=C\C(=O)N[C@@H]1C[C@H](C)[C@H](C/C=C(C)/C=C/[C@@H]2C[C@]3(CO3)C[C@@H](CC(=O)NCCS(C)(=O)=O)O2)O[C@@H]1C
Found: 8.48

Lookup: Identify the reported pIC50 for the following entry. CC(=O)O[C@@H](C)/C=C\C(=O)N[C@@H]1C[C@H](C)[C@H](C/C=C(C)/C=C/[C@@H]2C[C@]3(CO3)C[C@@H](CC(=O)O)O2)O[C@@H]1C
Found: 8.60

Lookup: Identify the reported pIC50 for the following entry. CC(=O)O[C@@H](C)/C=C\C(=O)N[C@@H]1C[C@H](C)[C@H](C/C=C(C)/C=C/[C@@H]2C[C@]3(CO3)C[C@@H](CC(=O)N[C@H]3CC[C@H](N(C)C)CC3)O2)O[C@@H]1C (relative stereo)
Found: 9.13

Lookup: Identify the reported pIC50 for the following entry. CC(=O)O[C@@H](C)/C=C\C(=O)N[C@@H]1C[C@H](C)[C@H](C/C=C(C)/C=C/[C@@H]2C[C@]3(CO3)C[C@@H](CC(=O)N[C@H]3CC[C@@H](N(C)C)CC3)O2)O[C@@H]1C (relative stereo)
Found: 9.06

Lookup: Identify the reported pIC50 for the following entry. CC(=O)O[C@@H](C)/C=C\C(=O)N[C@@H]1C[C@H](C)[C@H](C/C=C(C)/C=C/[C@H]2O[C@H](CC(=O)N[C@H]3CC[C@H](N(C)C)CC3)C[C@@]3(CO3)[C@@H]2O)O[C@@H]1C (relative stereo)
Found: 7.85

###

# Test system: BT474 (breast cancer) cells
# assay.remarks: In vitro cell assay (MTS cell viability), BT474
# Format: cell-based
# stated.conditions: Homo sapiens, BT-474; free compounds (natural products and synthetic analogs); cell viability 96 hours after treatment
pIC50: −log10 of the molar value. Structures can show the parent of a compound that is named as a salt.
I'd appreciate it if you marked entries Met when pIC50 is lower than 9 and Not met when it is not.

Lookup: For CC(=O)O[C@@H](C)/C=C\C(=O)N[C@@H]1C[C@H](C)[C@H](C/C=C(C)/C=C/[C@@H]2C[C@]3(CO3)C[C@@H](CN)O2)O[C@@H]1C [#B140, acetate, acetate salt] , is the recorded pIC50 below the cut-off of 9?
Found: Not met

Lookup: For CC(=O)O[C@@H](C)/C=C\C(=O)N[C@@H]1C[C@H](C)[C@H](C/C=C(C)/C=C/[C@H]2O[C@H](CC(=O)O)C[C@@](O)(CCl)[C@@H]2O)O[C@@H]1C , is the recorded pIC50 below the cut-off of 9?
Found: Met

Lookup: For CC(=O)O[C@@H](C)/C=C\C(=O)N[C@@H]1C[C@H](C)[C@H](C/C=C(C)/C=C/[C@@H]2C[C@]3(CO3)C[C@@H](CC(=O)NCc3ccc(S(=O)(=O)N(C)C)cc3)O2)O[C@@H]1C , is the recorded pIC50 below the cut-off of 9?
Found: Met

Lookup: For CC(/C=C/[C@@H]1C[C@]2(CO2)C[C@@H](CN)O1)=C\C[C@@H]1O[C@H](C)[C@H](NC(=O)/C=C\[C@H](C)O)C[C@@H]1C [#B139, acetate salt] , is the recorded pIC50 below the cut-off of 9?
Found: Met

Lookup: For CCCNC(=O)C[C@@H]1C[C@@]2(CO2)[C@H](O)[C@@H](/C=C/C(C)=C/C[C@@H]2O[C@H](C)[C@H](NC(=O)/C=C\[C@H](C)OC(=O)N3CCCCC3)C[C@@H]2C)O1 , is the recorded pIC50 below the cut-off of 9?
Found: Not met

Lookup: For CC(=O)O[C@@H](C)/C=C\C(=O)N[C@@H]1C[C@H](C)[C@H](C/C=C(C)/C=C/[C@H]2O[C@H](CN)C[C@@]3(CO3)[C@@H]2O)O[C@@H]1C [#B147, acetate, acetate salt] , is the recorded pIC50 below the cut-off of 9?
Found: Met

Lookup: For CCCNC(=O)C[C@@H]1C[C@@]2(CO2)C[C@@H](/C=C/C(C)=C/C[C@@H]2O[C@H](C)[C@H](NC(=O)/C=C\[C@H](C)OC(C)=O)C[C@@H]2C)O1 , is the recorded pIC50 below the cut-off of 9?
Found: Met

###

# System: BT474 (breast cancer) cells
# assay.remarks: In vitro cell assay (MTS cell viability), BT474
# Type: cell-based
# stated.conditions: Homo sapiens, BT-474; free compounds (natural products and synthetic analogs); cell viability 96 hours after treatment
Where a name gives a salt, the structure may show the parent alone.
For each of the molecules below, state its pIC50.
Hey, just a heads up that pIC50 is the negative log base 10 of the concentration in molar.

Lookup: Identify the reported pIC50 for the following entry. CNc1cccc(CNC(=O)C[C@@H]2C[C@@]3(CO3)[C@H](O)[C@@H](/C=C/C(C)=C/C[C@@H]3O[C@H](C)[C@H](NC(=O)/C=C\[C@H](C)OC(C)=O)C[C@@H]3C)O2)c1
Found: 8.84

Lookup: Identify the reported pIC50 for the following entry. CC(=O)O[C@@H](C)/C=C\C(=O)N[C@@H]1C[C@H](C)[C@H](C/C=C(C)/C=C/[C@@H]2C[C@]3(CO3)C[C@@H](CC(=O)NCc3ccccc3)O2)O[C@@H]1C
Found: 7.59

Lookup: Identify the reported pIC50 for the following entry. CC(/C=C/[C@H]1O[C@H](CC(N)=O)C[C@@]2(CO2)[C@@H]1O)=C\C[C@@H]1O[C@H](C)[C@H](NC(=O)/C=C\[C@H](C)OC(=O)N2CCCCC2)C[C@@H]1C
Found: 8.93

Lookup: Identify the reported pIC50 for the following entry. CC(=O)O[C@@H](C)/C=C\C(=O)N[C@@H]1C[C@H](C)[C@H](C/C=C(C)/C=C/[C@H]2O[C@H](CC(N)=O)C[C@@]3(CO3)[C@@H]2O)O[C@@H]1C
Found: 8.49

Lookup: Identify the reported pIC50 for the following entry. CC(=O)O[C@@H](C)/C=C\C(=O)N[C@@H]1C[C@H](C)[C@H](C/C=C(C)/C=C/[C@H]2O[C@H](CC(=O)N3CCN(C)CC3)C[C@@]3(CO3)[C@@H]2O)O[C@@H]1C [#B13, acetate, acetate salt]
Found: 9.17

###

# Tested on: BT474 (breast cancer) cells
# assay.remarks: In vitro cell assay (MTS cell viability), BT474
# Format: cell-based
# stated.conditions: Homo sapiens, BT-474; free compounds (natural products and synthetic analogs); cell viability 96 hours after treatment
Structures can show the parent of a compound that is named as a salt.
attribute.measured: pIC50
Hey, just a heads up that pIC50 is the negative log base 10 of the concentration in molar.

Lookup: Identify the reported pIC50 for the following entry. CC(=O)O[C@@H](C)/C=C\C(=O)N[C@@H]1C[C@H](C)[C@H](C/C=C(C)/C=C/[C@H]2O[C@H](CC(=O)NN)C[C@@]3(CO3)[C@@H]2O)O[C@@H]1C [#B6]
Found: 7.78

Lookup: Identify the reported pIC50 for the following entry. CC(=O)O[C@@H](C)/C=C\C(=O)N[C@@H]1C[C@H](C)[C@H](C/C=C(C)/C=C/[C@H]2O[C@H](CC(=O)N[C@H]3CC[C@H](O)CC3)C[C@@]3(CO3)[C@@H]2O)O[C@@H]1C [#B141]
Found: 7.96

Lookup: Identify the reported pIC50 for the following entry. CC(/C=C/[C@@H]1C[C@]2(CO2)C[C@@H](CC(N)=O)O1)=C\C[C@@H]1O[C@H](C)[C@H](NC(=O)/C=C\[C@H](C)OC(=O)N2CCNCC2)C[C@@H]1C [#B136, acetate salt]
Found: 7.59

Lookup: Identify the reported pIC50 for the following entry. CC(=O)O[C@@H](C)/C=C\C(=O)N[C@@H]1C[C@H](C)[C@H](C/C=C(C)/C=C/[C@@H]2C[C@]3(CO3)C[C@@H](CC(=O)NCc3ccc(N)cc3)O2)O[C@@H]1C [#B100]
Found: 7.97

Lookup: Identify the reported pIC50 for the following entry. CSCCN(C)C(=O)O[C@@H](C)/C=C\C(=O)N[C@@H]1C[C@H](C)[C@H](C/C=C(C)/C=C/[C@H]2O[C@H](CC(N)=O)C[C@@]3(CO3)[C@@H]2O)O[C@@H]1C [#B130]
Found: 8.82

Lookup: Identify the reported pIC50 for the following entry. CC(=O)O[C@@H](C)/C=C\C(=O)N[C@@H]1C[C@H](C)[C@H](C/C=C(C)/C=C/[C@H]2O[C@H](CC(=O)N[C@H]3CC[C@H](N)CC3)C[C@@]3(CO3)[C@@H]2O)O[C@@H]1C [#B76]
Found: 6.47
